System: SN12C renal
Assay: NCI-60 one-dose screen, 48 h (100 = growth as untreated, 0 = no growth, -100 = all killed)
Details: 10 µM unless noted
About 83,000 compounds went through this panel and 20% of them were active in at least one assay; those are over-represented in the sample as a whole.
Response field class: enum, chosen by comparing growth against bottom bin (below 50%), middle bin (50% to below 80%), top bin (80% or more)

Request: Into which category would you place Cc1cc(Cl)nc(N(CCNc2ccnc3cc(Cl)ccc23)Cc2ccccn2)n1 ?
Response: middle bin

Request: The entry to classify is OC(c1ccc(F)c(C(F)(F)F)c1)c1cnccc1NC1CCCCC1 (configuration not stated) ; which class holds it?
Response: middle bin

Request: Pick a category. Item: COc1ccc(OC)c(CCn2cncc2-c2c[nH]c3ccccc23)c1
Response: middle bin

Request: GET /class?item= O=C(Cn1c[n+](CC(=O)c2ccc([N+](=O)[O-])cc2)c2ccccc21)Nc1cccc2cccnc12
Response: bottom bin

Request: Pick a category. Item: O=C(CCN1CCCC1)Nc1ccc2c(Nc3ccc(Br)cc3)c3ccccc3nc2c1
Response: bottom bin

Request: Using the reported growth, which band applies to CCN(c1ccccc1)S(=O)(=O)c1cc([N+](=O)[O-])ccc1Cl ?
Response: middle bin

Request: Which class is correct for the following compound? N#Cc1c(NC(=O)NCc2ccccc2)sc2c1CCCC2
Response: bottom bin

Request: Category of CN1CCN(CCNc2nccc(-c3c(-c4cccc(O)c4)nc4sccn34)n2)S1(=O)=O , please.
Response: middle bin

Request: State the band of COc1ccc2[nH]c(O)c(/C=c3/cc4c(c(-c5ccc(F)cc5)n3)=Nc3ccccc3-4)c2c1
Response: top bin

Request: # classify by growth band: COc1ccccc1NC(=O)C1CC(c2ccc(F)cc2)=NO1 (configuration not stated)
Response: top bin

Request: Band for the recorded growth of COc1cc2oc(-c3cccc(C(=O)Nc4ccccc4)c3)cc(=O)c2c(O)c1OC ?
Response: middle bin

Request: Place this compound in its band: O=C1c2cccc3c(-c4ccc5c(c4)ncn5C4CCCCC4)ccc(c23)C(=O)N1c1nc2ccccc2s1
Response: top bin

Request: Record O=C(NNc1nc2c(F)cccc2n2cccc12)c1cnccn1 — which class?
Response: bottom bin

Request: Please indicate the class for O=C(NCCc1ccccc1)Nc1ccc2cc3ccc(NC(=O)NCCc4ccccc4)cc3nc2c1 based on its growth.
Response: bottom bin

Request: Just checking, what class would you give CNCCOc1nc2c3cnccc3cc(-c3cc(OC)c(OC)c(OC)c3)c2c2ccncc12 here?
Response: bottom bin

Request: Form field 'band' for NCCCCCCNc1cc(-c2cccc(OC(F)(F)F)c2)nc2ccc(N3CCCC3)cc12
Response: bottom bin

====

Record form. Attribute: growth. Fill in for each entry.
Tested on: SW-620 colon
Test: NCI-60 one-dose screen, 48 h (100 = growth as untreated, 0 = no growth, -100 = all killed)
Conditions: 10 µM unless noted
This is part of a sample that, as a whole, favours compounds with a hit. Of some 83,000 tested, about 20% had one in any assay. Calls of active or inactive are those of the source. Rule for the calls: active = growth percent below 10; inactive = the rest.

Request: Find growth (SW-620 colon) for the entry C#CCNC(=O)c1cccc2c1cc(C)n2-c1nc2c(c(NCc3ccccc3)n1)CCCC2
Response: -4.61% (active)

Request: Record CCN(CC)CCn1c(=O)c2cc(OC)c(OC)cc2c2ccc3cc4c(cc3c21)OCO4 : what is its growth with SW-620 colon?
Response: 26% (inactive)

Request: Hello, I am looking for reported growth with SW-620 colon for COc1ccc(/C=C/c2nc(Nc3ccc(S(=O)(=O)Nc4nc(C)cc(C)n4)cc3)c3ccccc3n2)cc1 . Could you help?
Response: 61.1% (inactive)

Request: Return growth measured with SW-620 colon given this molecule: O=c1[nH]nc(-c2ccccc2)c2sc3ncc(-c4ccc(Br)cc4)n3c12
Response: 35% (inactive)

Request: Please state recorded growth (tested on SW-620 colon) of Nc1c(C(=O)Nc2ccnc3ccccc23)sc2nc3c(cc12)CN(Cc1ccccc1)CC3
Response: 95.3% (inactive)

====

Test system: UACC-257 melanoma
Experiment: NCI-60 one-dose screen, 48 h
Conditions: 10 µM unless noted
Compounds without any hit were thinned out: in the full panel of roughly 83,000, 20% have a hit. Active and inactive are the calls of the source. The calls were made as follows: active = growth percent below 10; inactive = the rest.
Your response should consist of one outcome taken from active, inactive

Request: Any idea what this test logged for C=C(C)[C@@H]1CC[C@]2(C(=O)N3CCN(C)CC3)CC[C@]3(C)[C@H](CC[C@@H]4[C@@]5(C)C/C(=C/c6ccncc6)C(=O)C(C)(C)[C@@H]5CC[C@]43C)[C@@H]12 ?
Response: inactive

Request: Lab log entry: CC(C)N1C(=O)/C(=C2\SC(=S)N(C(C)C)C2=O)SC1=S — outcome as called in the assay?
Response: inactive

Request: What did this assay record as the result for CCNc1nc2cc(Nc3ccnc4cc(Cl)ccc34)ccc2o1 ?
Response: inactive

Request: Called result for N#CC1C(C#N)C(C(=O)c2ccc(Br)cc2)N2c3ccccc3C=CC12 (centres undefined)
Response: inactive

Request: Could you check what this test reported for Cc1ncc(C(=O)Nc2ccc(CN3CCN(C)CC3)c(C(F)(F)F)c2)cc1C#Cc1cnc(N)cc1C#N ?
Response: active

Request: What is the recorded call for this compound in the test? COc1ccc(-c2nc([C@@H](C)Sc3nc(N)cc(N)n3)c(C)s2)cc1OCCN1CCOCC1
Response: inactive

Request: I would be grateful if you could indicate the recorded call for CN(C)c1ccc(Nc2c3ccccc3nc3cc(NC(=O)CCN4CCCC4)ccc23)cc1 .
Response: active

Request: Identify the outcome logged in this assay for the compound shown: C#Cc1cccc(NC(=O)Nc2cccc(NC(=O)CCl)c2)c1
Response: inactive

Request: Just curious, what result did N#C/C(=C\c1ccc([N+](=O)[O-])s1)c1nc2cc(Br)ccc2s1 get here?
Response: active

Request: Per the assay record, what outcome was assigned to CC1=C(C(=O)/C=C/c2ccc(N(C)C)cc2)C(c2ccccc2)NC(=S)N1 (centres undefined) ?
Response: inactive

Request: Given COc1ccc(/C=C/c2nc(Nc3ccc(S(=O)(=O)Nc4cc(C)on4)cc3)c3ccccc3n2)cc1 , state the outcome it received in this test.
Response: inactive

Request: Short answer needed: outcome of this test for O=C(CCN1CCCC1)Nc1ccc2c(Nc3ccc(Br)cc3)c3ccccc3nc2c1 ?
Response: active

Request: Please indicate how the test categorized COc1ccc(C(C)=O)c(OC)c1 .
Response: inactive

Request: Kindly provide the recorded test outcome for the following compound: C=C(CBr)[C@@H]1CC[C@]2(COC(C)=O)CC[C@]3(C)[C@H](CC[C@@H]4[C@@]5(C)CCCNC(C)(C)[C@@H]5CC[C@]43C)[C@@H]12
Response: inactive

====

System: PC-3 prostate
Assay: NCI-60 one-dose screen, 48 h (100 = growth as untreated, 0 = no growth, -100 = all killed)
Settings: 10 µM unless noted
The panel holds about 83,000 compounds, 20% with a hit somewhere; the sample as a whole holds those more often. Activity calls are given as the source filed them. How the source made its calls: active means growth percent below 10; inactive means the rest.
Exercise: state measured growth for each of the compounds provided.

Request: Value lookup for growth; key = CCOc1ccc(/C=N/Nc2cc(C)nc3ccc(Br)cc23)cc1
Response: 81.4% (inactive)

Request: For OCc1cnc2ccccc2c1NC1CCCCCC1 , what is its reported growth?
Response: 82.2% (inactive)

Request: Would you mind telling me what growth value was observed for COc1ccc(/C=C2\COc3ccc(-c4ccccc4)cc3C2=O)c(OC)c1 ?
Response: 78.2% (inactive)

====

Tested on: NCI-H322M lung
Test: NCI-60 one-dose screen, 48 h (100 = growth as untreated, 0 = no growth, -100 = all killed)
Conditions: 10 µM unless noted
Compounds without any hit were thinned out: in the full panel of roughly 83,000, 20% have a hit.
Lab note: compare growth with 60%, writing true if less and false if equal or more.

Request: Here's an entry: COc1cccc2c1c1nc3cc(C)c(C)cc3nc1n2CCN(C)C . Is its growth below 60%?
Response: true

Request: Find out if reported growth for CC1(C)NCCC[C@]2(C)[C@H]3CC(=O)[C@H]4[C@@H]5C[C@](C)(CO)CC[C@]5(C)CC[C@@]4(C)[C@]3(C)CC[C@@H]12 is less than 60%
Response: false

Request: Please determine if N=C(N)c1ccc(OCCCCCCCCCCOc2ccc(C(=N)N)cc2)cc1 is below 60% in terms of growth.
Response: true

Request: Find out if reported growth for CCNC(=O)Oc1ccc(/C(=C(\C)c2ccccc2)c2ccc(OCCCN(C)C)cc2)cc1 is less than 60%
Response: false

Request: Answer whether the compound Cc1c2cc[nH]c(=O)c2c(C)c2c1[nH]c1cc(OCCN3CCN(C)CC3)ccc12 has growth strictly less than 60%
Response: true

Request: Strictly below 60% in growth? C[C@H]1[C@H](C)CC[C@]2(C(=O)Nc3ccc4ncccc4c3)CC[C@]3(C)C(=CC[C@@H]4[C@@]5(C)CCCNC(C)(C)[C@@H]5CC[C@]43C)[C@H]12
Response: false

Request: Here's an entry: N#Cc1c(-c2cccc([N+](=O)[O-])c2)nc(SCC(=O)c2ccc(Cl)cc2)[nH]c1=O . Is its growth below 60%?
Response: false
